System: IGROV1 ovarian
Test: NCI tumour cell line growth inhibition, 48 h
Property Measured: TGI (µM)
The answer is to be given in µM; state only the numeric part.

Here is how some molecules turned out for TGI.
Fill in reported TGI for this entry: Cc1ccc(NC(=S)NNC(=O)c2cc(-c3ccccc3)nc3ccccc23)cc1
36.7

Fill in reported TGI for this entry: CCOC(=O)C(=Cc1cccc(Cl)c1)C(=O)OCC
7.85

Fill in reported TGI for this entry: O=C(c1cc(Cl)cc(Cl)c1)N1CCN(C(=O)c2cc(Cl)cc(Cl)c2)C1=S
32.8

Fill in reported TGI for this entry: NCCCNCCCCNCCCN
33.8

Field: next molecule
Fill in reported TGI for this entry: COc1ccncc1C#Cc1cncc(C(=O)Nc2ccc(CN3CCN(C)CC3)c(C(F)(F)F)c2)c1
84.2

====

System: NCI/ADR-RES ovarian
Experiment: NCI tumour cell line growth inhibition, 48 h
Property Measured: GI50

Here is how some compounds turned out for GI50.
Fill in reported GI50 for this entry: Cc1cn2c(/C=C3\C(=O)Nc4ccc(O)cc43)c(-c3ccc(Cl)cc3)nc2s1
21500 nM

Fill in reported GI50 for this entry: COC12C=C/C(=C(/C(=O)OCc3ccncc3)C(=O)CCCCCCCCC3(OC)C=C/C(=C(/C(=O)OCc4ccncc4)C(=O)CCCCCCCC1)O3)O2
774 nM

Fill in reported GI50 for this entry: CC1(C)OCCn2c1nc1c(N3CCOCC3)nc(-c3cnc(N)nc3)nc12
508 nM

Field: next compound
Fill in reported GI50 for this entry: Cc1ccc(/C=C/c2c(C(=O)/C=C/c3ccc(C(F)(F)F)cc3)c(C)nc3ccccc23)cc1
2220 nM

====

GI50 overview
System: BT-549 breast
Experiment: NCI tumour cell line growth inhibition, 48 h

Fill in reported GI50 for this entry: CCCCCCNC(=O)c1nc(-c2ccccc2)oc1Cc1ccc(OP(=O)(O)O)cc1
16.8 µM

Fill in reported GI50 for this entry: C=CC(=O)N1CCC(C2CCNc3c(C(N)=O)c(-c4ccc(Oc5ccccc5)cc4)nn32)CC1 (stereo not given)
12.9 µM

Fill in reported GI50 for this entry: Cn1cnc([N+](=O)[O-])c1S(=O)(=O)Oc1ccccc1
20.7 µM

Fill in reported GI50 for this entry: CCOC(=O)C(=Cc1cccc(Cl)c1)C(=O)OCC
2.06 µM

Fill in reported GI50 for this entry: COc1cc(CNCCCN2C(=O)c3ccc4c5c(ccc(c35)C2=O)C(=O)N(CCCNCc2cc(OC)c(OC)c(OC)c2)C4=O)cc(OC)c1OC
0.852 µM

Fill in reported GI50 for this entry: CCN(CC)CCOc1ccc(/C=C2\CC3C4CC=C5C[C@@H](O)CC[C@]5(C)C4CC[C@]3(C)C2=O)cc1OC (stereo not given in full)
26 µM

Fill in reported GI50 for this entry: N=c1ccn2c(n1)OC1C(O)C(CO)OC12 (stereo not given)
> 100 µM

Fill in reported GI50 for this entry: Cc1c(CNc2ccc(C(=O)NC(CC(=O)O)C(=O)O)cc2)ccc2nc(N)nc(N)c12 (stereo not given)
> 1000 µM

Fill in reported GI50 for this entry: COc1ccc(-c2oc(=O)ccc2-c2cc(OC)c(OC)c(OC)c2)cc1F
19.7 µM

Fill in reported GI50 for this entry: N#C/C=C(\c1ccc([N+](=O)[O-])cc1)n1nnc2cc(Cl)c(Cl)cc21
1.77 µM
